The reported numbers originate from the supplement of paper PMC10567573.

B1: TRIM15 (parent)
chain: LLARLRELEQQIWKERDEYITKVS

# Variants of: B1
# Experimental protocol: protein stability index of a GFP-peptide fusion (GPS, HEK-293T) (PSI 1-6); higher = more stable;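 further: lentivirally expressed fusions sorted by FACS into six bins by GFP to DsRed ratio, PSI derived from sequencing read proportions per bin multiplied by bin number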
# Assay context: c terminus: a fixed tail appended
Value kind: protein stability index

Variant designation | Value kind | Data value
L8K | protein stability index | 3.04
K22F | protein stability index | 1.72
V23A | protein stability index | 1.5
R4M | protein stability index | 2.36
I12P | protein stability index | 1.77
A3H | protein stability index | 1.46
L2E | protein stability index | 1.38
R4N | protein stability index | 1.58
L8S | protein stability index | 1.75
E9P | protein stability index | 2.29
L5A | protein stability index | 1.91
K22C | protein stability index | 1.94
L2K | protein stability index | 1.25
Y19P | protein stability index | 1.55
Q11A | protein stability index | 1.98
Y19Q | protein stability index | 2.13
L2N | protein stability index | 2.18
L5R | protein stability index | 2.28
L1T | protein stability index | 1.63
D17P | protein stability index | 1.86
L5S | protein stability index | 3.44
R16C | protein stability index | 2
E9N | protein stability index | 1.94
L8E | protein stability index | 2.24
R4G | protein stability index | 2.56
R6D | protein stability index | 1.79
W13C | protein stability index | 2.68
